tested on: Plasmodium falciparum; assay: microbe, parasite or virus in culture; settings: Dd2, 72 h
Description: Antimalarial activity against wild-type Plasmodium falciparum Dd2 assessed as reduction in parasitemia incubated for 72 hrs by SYBR green I dye based analysis
endpoint_label: log10(EC50) (log10 of the value in nM)
log10 EC50, nM

# count of solved cases: 4
1. O=C(NNC(=O)c1csnn1)c1ccc(Cl)cc1 = 2.26
2. C[C@@H]1CC[C@H]2[C@@H](C)C(=O)O[C@@H]3O[C@@]4(C)CC[C@@H]1[C@]32OO4 [ARTEMISININ] = 0.46
3. CNC(=O)c1ccc(-c2cnc3cnc(C(=O)N(C)c4ccc(Cl)cc4)cn23)cc1 = 0.78
4. CCN1CCN(Cc2ccc(NC(=O)c3cc(Cl)cc(NC(=O)c4cncc(-c5cccs5)c4)c3)cc2C(F)(F)F)CC1 = 1.71

So what does the record say about log10(EC50) for CC1(C)c2nc(-c3ccc(F)cc3)c(Nc3ccc(Cl)cc3)n2CCN1C(=O)CN ?
0.26

====

experiment: Selectivity index, ratio of EC50 for human MCF7 cells to EC50 for multidrug-resistant Plasmodium falciparum Dd2 at ring stage infected in A+ erythrocytes; assay type: toxicity, cell-based; conditions: read-out: Ratio EC50
endpoint_label: selectivity ratio
Answers are plain numbers.

1) CCN1CCN(Cc2ccc(NC(=O)c3cc(Cl)cc(NC(=O)c4cncc(-c5cccs5)c4)c3)cc2C(F)(F)F)CC1 = 61
2) CCN1CCN(Cc2ccc(C(=O)Nc3cc(Cl)cc(NC(=O)c4cncc(-c5cccs5)c4)c3)cc2C(F)(F)F)CC1 = 68
3) CCN1CCN(Cc2ccc(NC(=O)c3cc(C)cc(NC(=O)c4cncc(-c5cccs5)c4)c3)cc2C(F)(F)F)CC1 = 14
4) CCN1CCN(Cc2ccc(NC(=O)c3cc(Br)cc(NC(=O)c4cncc(-c5cccs5)c4)c3)cc2C(F)(F)F)CC1 = 108
5) CCN1CCN(Cc2ccc(NC(=O)c3ccc(F)c(NC(=O)c4cncc(-c5cccs5)c4)c3)cc2C(F)(F)F)CC1 = 3.9
6) CCN1CCN(Cc2ccc(NC(=O)c3cc(NC(=O)c4cncc(-c5cccs5)c4)c(C)cc3F)cc2C(F)(F)F)CC1 = 4.4

Here is the next item to consider.
Find the recorded selectivity ratio belonging to CCN1CCN(Cc2ccc(NC(=O)c3cc(Cl)cc(NC(=O)c4cncnc4)c3)cc2C(F)(F)F)CC1 and report it.
29

====

tested on: Plasmodium berghei; test: Antimalarial activity against Plasmodium berghei sporozoites expressing luciferase infected in human HepG2-A16-CD81 cells assessed as reduction in parasite growth incubated for 18 hrs; assay type: functional, organism-based; details: HepG2-A16-CD81, 18 h
endpoint_label: EC50 (nM)
One number for each entry, in nM.

Would you mind telling me what EC50 value was observed for CCN1CCN(Cc2ccc(NC(=O)c3cc(Cl)cc(NC(=O)c4cncc(-c5cccs5)c4)c3)cc2C(F)(F)F)CC1 ?
1770

====

system: MCF7; assay: Cytotoxicity against human MCF7 cells assessed as reduction in cell viability incubated for 48 hrs by MTS assay; type: toxicity, cell-based; conditions: mcf7
Please provide measured pEC50 for the entries that follow.
Give bare numbers, as −log10 of the molar value.

Field: pEC50. Fill in for each record below.
1. O=C(Nc1ccnc(N2CCOCC2)c1)c1cc(Cl)cc(NC(=O)c2cncc(-c3cccs3)c2)c1
2. CCN1CCN(Cc2ccc(NC(=O)c3cc(NC(=O)c4cncc(-c5cccs5)c4)cc(C(F)(F)F)c3)cc2C(F)(F)F)CC1
3. CCN1CCN(Cc2ccc(NC(=O)c3cc(Cl)cc(C(=O)Nc4cncc(-c5cccs5)c4)c3)cc2C(F)(F)F)CC1
4. CCN1CCN(Cc2ccc(NC(=O)c3cc(Cl)cc(NC(=O)c4cncc(-c5cccs5)c4)c3)cc2)CC1

4.83
5.45
5.27
4.99

====

experiment: Tmax in mouse at 10 mg/kg, po; type: ADME, organism-based; settings: in vivo
endpoint_label: Tmax (h)
Answers are plain numbers, in h.

Item CCN1CCN(Cc2ccc(NC(=O)c3cc(Cl)cc(NC(=O)c4cncc(-c5cccs5)c4)c3)cc2C(F)(F)F)CC1 has what recorded Tmax?
4.67

====

Exercise: state measured selectivity ratio for each of the molecules provided.
experiment: Selectivity index, ratio of EC50 for human HepG2 cells to EC50 for multidrug-resistant Plasmodium falciparum Dd2 at ring stage infected in A+ erythrocytes; format: toxicity, cell-based; details: read-out: Ratio EC50
Give bare numbers.

1. CCN1CCN(Cc2ccc(NC(=O)c3cc(Cl)cc(NC(=O)N4CCN(C)CC4)c3)cc2C(F)(F)F)CC1 = 11
2. CCN1CCN(Cc2ccc(NC(=O)c3ccc(F)c(NC(=O)c4cncc(-c5cccs5)c4)c3)cc2C(F)(F)F)CC1 = 2.4

Provide each entry's selectivity ratio from the list below.
1. CCN1CCN(Cc2ccc(NC(=O)c3cc(NC(=O)c4cncc(-c5cccs5)c4)cc(C(F)(F)F)c3)cc2C(F)(F)F)CC1
2. CCN1CCN(Cc2ccc(NC(=O)c3cc(Cl)cc(NC(=O)c4cncnc4)c3)cc2C(F)(F)F)CC1
3. CCN1CCN(Cc2ccc(NC(=O)c3cc(Cl)cc(NC(=O)c4cccc(-c5cccs5)c4)c3)cc2C(F)(F)F)CC1
4. CCN1CCN(Cc2ccc(NC(=O)c3cc(Cl)cc(NC(=O)c4ccccc4)c3)cc2C(F)(F)F)CC1
5. CCN1CCN(Cc2ccc(NC(=O)c3cc(C)cc(NC(=O)c4cncc(-c5cccs5)c4)c3)cc2C(F)(F)F)CC1
6. CCN1CCN(Cc2ccc(NC(=O)c3ccc(OC)c(NC(=O)c4cncc(-c5cccs5)c4)c3)cc2C(F)(F)F)CC1
7. CCN1CCN(Cc2ccc(NC(=O)c3cc(Cl)cc(C(=O)Nc4cncc(-c5cccs5)c4)c3)cc2C(F)(F)F)CC1

1. 92
2. 33
3. 22
4. 15
5. 8.6
6. 2.1
7. 39

====

test system: MCF7; assay: Cytotoxicity against human MCF7 cells assessed as reduction in cell viability incubated for 48 hrs by MTS assay; assay type: toxicity, cell-based; settings: mcf7
Provide the reported EC50 of each item.
Numbers only, in µM.

1) CCN1CCN(Cc2ccc(NC(=O)c3cc(Cl)cc(NC(=O)c4cncc(C#N)c4)c3)cc2C(F)(F)F)CC1 = 7.58
2) CCN1CCN(Cc2ccc(NC(=O)c3cc(Cl)cc(NCc4cncc(-c5cccs5)c4)c3)cc2C(F)(F)F)CC1 = 8.33
3) CCN1CCN(Cc2ccc(NC(=O)c3ccc(OC)c(NC(=O)c4cncc(-c5cccs5)c4)c3)cc2C(F)(F)F)CC1 = 5.06

Turning to the following molecule.
Lab request: please report EC50 under test system MCF7 for CCN1CCN(Cc2ccc(NC(=O)c3cc(Cl)cc(NC(=O)c4cncnc4)c3)cc2C(F)(F)F)CC1
15.3

====

system: Plasmodium falciparum; assay: Resistance index, ratio of EC50 for multidrug-resistant Plasmodium falciparum Dd2 at ring stage infected in A+ erythrocytes to EC50 for drug-sensitive Plasmodium falciparum 3D7 at ring stage infected in A+ erythrocytes; type: organism-based; conditions: human
Sorting guide: entries reporting Ratio EC50 beneath 1 go in the condition met pile, the rest go in the condition not met pile.

1) CCN1CCN(Cc2ccc(NC(=O)c3cc(Cl)cc(NC(=O)c4cnc(N)nc4)c3)cc2C(F)(F)F)CC1 = condition not met

Lab note: Ratio EC50 threshold 1. Does this compound come in strictly under it? CCN1CCN(Cc2ccc(NC(=O)c3cc(NC(=O)c4cncc(-c5cccs5)c4)ccc3F)cc2C(F)(F)F)CC1
condition not met

Now consider CCN1CCN(Cc2ccc(C(=O)Nc3cc(Cl)cc(NC(=O)c4cncc(-c5cccs5)c4)c3)cc2C(F)(F)F)CC1 .
condition not met

Can you handle CCN1CCN(Cc2ccc(NC(=O)c3ccc(F)c(NC(=O)c4cncc(-c5cccs5)c4)c3)cc2C(F)(F)F)CC1 next?
condition not met

Try this compound next: CCN1CCN(Cc2ccc(NC(=O)c3cc(Cl)cc(NC(=O)c4cccnc4)c3)cc2C(F)(F)F)CC1
condition not met

Please give the result for O=C(Nc1ccnc(N2CCOCC2)c1)c1cc(Cl)cc(NC(=O)c2cncc(-c3cccs3)c2)c1 too.
condition not met

CCN1CCN(Cc2ccc(NC(=O)c3cc(Cl)cc(NC(=O)c4ccccc4)c3)cc2C(F)(F)F)CC1 ?
condition not met

Can you handle CCN1CCN(Cc2ccc(NC(=O)c3cc(Cl)cc(NCc4cncc(-c5cccs5)c4)c3)cc2C(F)(F)F)CC1 next?
condition not met

Input CCN1CCN(Cc2ccc(NC(=O)c3cc(Cl)cc(NC(=O)c4cncc(-c5cncs5)c4)c3)cc2C(F)(F)F)CC1
condition met

How about this compound: CCN1CCN(Cc2ccc(NC(=O)c3cc(Cl)cc(NC(=O)c4cccc(-c5cccs5)c4)c3)cc2C(F)(F)F)CC1
condition not met

Also need CCN1CCN(Cc2ccc(NC(=O)c3cc(Cl)cc(NC(=O)c4cncc(-c5ccccc5)c4)c3)cc2C(F)(F)F)CC1 , thanks.
condition not met

Another compound to look at: CCN1CCN(Cc2ccc(NC(=O)c3cc(Cl)cc(C(=O)Nc4cncc(-c5cccs5)c4)c3)cc2C(F)(F)F)CC1
condition not met

Again, but for CCN1CCN(Cc2ccc(NC(=O)c3cc(Cl)cc(NC(=O)c4cncc(-c5ccco5)c4)c3)cc2C(F)(F)F)CC1
condition met

Ok, now CCN1CCN(Cc2ccc(NC(=O)c3cc(Cl)cc(NC(=O)N4CCN(C)CC4)c3)cc2C(F)(F)F)CC1
condition met

Another compound to check: CCN1CCN(Cc2ccc(NC(=O)c3cc(NC(=O)c4cncc(-c5cccs5)c4)cc(C(F)(F)F)c3)cc2C(F)(F)F)CC1
condition met
